FYI, the data here is from ChEMBL document CHEMBL1201862.

Target: Alkaline phosphatase, tissue-nonspecific isozyme (Homo sapiens)
Sequence (P05186 whole entry): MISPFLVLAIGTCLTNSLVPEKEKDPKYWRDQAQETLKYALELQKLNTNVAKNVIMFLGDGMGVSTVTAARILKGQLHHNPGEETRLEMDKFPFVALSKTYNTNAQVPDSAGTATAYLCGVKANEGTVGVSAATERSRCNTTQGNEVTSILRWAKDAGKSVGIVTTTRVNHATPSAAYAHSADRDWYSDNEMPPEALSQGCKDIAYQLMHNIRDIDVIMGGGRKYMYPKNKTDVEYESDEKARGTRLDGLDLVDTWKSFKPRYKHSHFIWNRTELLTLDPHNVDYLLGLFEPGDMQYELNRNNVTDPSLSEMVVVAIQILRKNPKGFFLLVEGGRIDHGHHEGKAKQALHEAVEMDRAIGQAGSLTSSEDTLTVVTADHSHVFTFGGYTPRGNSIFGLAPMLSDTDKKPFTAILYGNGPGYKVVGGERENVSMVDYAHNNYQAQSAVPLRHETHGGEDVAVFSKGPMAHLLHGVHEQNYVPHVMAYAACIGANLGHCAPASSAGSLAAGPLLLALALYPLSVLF
Experiment: potency against alkaline phosphatase TNAP – biochemical, luminescent, dose response, SAR follow-up (AID 1056)
Activity calls are given as the source filed them.
The reply should be one of these categories: 1 = active, 0 = inactive

-- ask Field: outcome | Entry: `COc1ccc(S(=O)(=O)Nc2cnc3ccccc3c2)cc1OC`
-- reply 0

-- ask Field: outcome | Entry: `O=C(CSc1nnc(-c2ccncc2)[nH]1)c1ccc(O)c(O)c1`
-- reply 1

-- ask Field: outcome | Entry: `Cc1ccc(-c2cc(C(=O)O)[nH]n2)cc1C`
-- reply 1

-- ask Field: outcome | Entry: `Cc1ccc(-c2nc(N)nn2-c2ccccc2)cc1`
-- reply 0

-- ask Field: outcome | Entry: `CC1(C)Oc2ccc([N+](=O)[O-])cc2O1`
-- reply 0

* * *

Consider the following compounds; for each one, report its IC50.
Molecular target: Fatty acid synthase (Homo sapiens)
Sequence (P49327 whole entry): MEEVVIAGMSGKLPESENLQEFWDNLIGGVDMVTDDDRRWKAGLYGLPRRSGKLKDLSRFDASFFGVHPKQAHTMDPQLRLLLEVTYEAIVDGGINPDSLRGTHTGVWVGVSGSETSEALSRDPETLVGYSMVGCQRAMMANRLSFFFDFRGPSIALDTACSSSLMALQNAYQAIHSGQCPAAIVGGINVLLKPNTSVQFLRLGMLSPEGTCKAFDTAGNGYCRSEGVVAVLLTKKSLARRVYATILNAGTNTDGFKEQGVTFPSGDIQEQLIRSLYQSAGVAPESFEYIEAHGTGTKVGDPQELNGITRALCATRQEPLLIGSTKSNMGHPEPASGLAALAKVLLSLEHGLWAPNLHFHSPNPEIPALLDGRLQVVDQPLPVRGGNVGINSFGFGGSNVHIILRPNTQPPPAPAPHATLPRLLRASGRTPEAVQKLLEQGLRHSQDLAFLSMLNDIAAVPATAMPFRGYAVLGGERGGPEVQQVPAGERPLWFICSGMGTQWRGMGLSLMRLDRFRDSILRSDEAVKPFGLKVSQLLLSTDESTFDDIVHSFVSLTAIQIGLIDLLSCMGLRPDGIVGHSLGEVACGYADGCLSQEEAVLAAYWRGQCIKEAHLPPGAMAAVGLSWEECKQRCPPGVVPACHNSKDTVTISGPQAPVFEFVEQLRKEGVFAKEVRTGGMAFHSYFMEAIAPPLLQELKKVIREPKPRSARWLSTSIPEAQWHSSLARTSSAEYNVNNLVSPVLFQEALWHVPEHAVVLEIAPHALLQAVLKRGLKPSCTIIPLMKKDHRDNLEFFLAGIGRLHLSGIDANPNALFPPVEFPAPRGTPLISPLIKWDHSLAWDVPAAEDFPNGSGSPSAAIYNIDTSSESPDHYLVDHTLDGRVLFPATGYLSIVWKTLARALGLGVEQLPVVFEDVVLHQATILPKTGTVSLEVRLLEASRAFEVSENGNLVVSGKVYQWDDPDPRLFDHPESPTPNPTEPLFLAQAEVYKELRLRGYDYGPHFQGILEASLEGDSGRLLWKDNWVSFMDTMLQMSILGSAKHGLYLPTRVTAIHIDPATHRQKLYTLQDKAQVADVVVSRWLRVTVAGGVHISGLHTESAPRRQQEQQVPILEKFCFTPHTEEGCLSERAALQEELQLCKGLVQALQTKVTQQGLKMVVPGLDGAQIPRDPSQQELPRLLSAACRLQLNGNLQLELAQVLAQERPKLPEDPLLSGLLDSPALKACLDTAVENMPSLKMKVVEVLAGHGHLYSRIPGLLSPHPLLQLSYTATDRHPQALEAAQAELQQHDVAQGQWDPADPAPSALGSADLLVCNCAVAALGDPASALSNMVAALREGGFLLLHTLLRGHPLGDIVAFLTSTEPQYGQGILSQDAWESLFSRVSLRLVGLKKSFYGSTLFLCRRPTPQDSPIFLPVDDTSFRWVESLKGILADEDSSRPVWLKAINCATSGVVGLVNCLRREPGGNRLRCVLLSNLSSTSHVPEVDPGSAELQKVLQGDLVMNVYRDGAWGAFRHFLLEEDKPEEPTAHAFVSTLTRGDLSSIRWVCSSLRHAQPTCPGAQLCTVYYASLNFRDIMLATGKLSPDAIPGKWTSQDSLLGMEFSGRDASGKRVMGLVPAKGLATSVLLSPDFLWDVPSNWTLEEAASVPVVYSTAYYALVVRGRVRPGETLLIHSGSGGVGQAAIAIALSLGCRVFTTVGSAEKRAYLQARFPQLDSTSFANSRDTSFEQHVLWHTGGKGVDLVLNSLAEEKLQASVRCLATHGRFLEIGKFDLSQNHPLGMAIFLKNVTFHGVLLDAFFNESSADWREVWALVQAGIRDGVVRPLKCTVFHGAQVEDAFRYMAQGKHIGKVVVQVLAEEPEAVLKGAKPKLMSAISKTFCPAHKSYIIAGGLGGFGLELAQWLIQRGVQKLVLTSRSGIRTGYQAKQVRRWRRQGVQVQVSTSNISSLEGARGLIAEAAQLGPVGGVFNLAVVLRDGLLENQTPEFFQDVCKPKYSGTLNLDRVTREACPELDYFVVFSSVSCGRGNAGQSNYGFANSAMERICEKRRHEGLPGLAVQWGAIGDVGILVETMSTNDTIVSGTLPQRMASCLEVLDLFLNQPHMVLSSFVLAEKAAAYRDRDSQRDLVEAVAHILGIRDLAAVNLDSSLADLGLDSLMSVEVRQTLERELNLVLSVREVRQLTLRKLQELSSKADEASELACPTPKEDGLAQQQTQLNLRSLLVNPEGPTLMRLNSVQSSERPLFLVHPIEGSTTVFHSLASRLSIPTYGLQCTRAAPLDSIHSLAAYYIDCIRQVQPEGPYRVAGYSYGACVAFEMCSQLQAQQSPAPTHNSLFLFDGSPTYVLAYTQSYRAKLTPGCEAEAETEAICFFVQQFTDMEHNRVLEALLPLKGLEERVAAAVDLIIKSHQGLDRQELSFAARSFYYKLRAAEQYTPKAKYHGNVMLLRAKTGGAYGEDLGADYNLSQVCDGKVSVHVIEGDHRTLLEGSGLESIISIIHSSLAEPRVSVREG
Experiment: inhibition of human FAS-TE enzyme activity – biochemical, endpoint fluorescence intensity, uHTS hits, dose response (AID 624327);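 also: fluorescence from hydrolysis of an O-methyl fluorescein acyl ester substrate by the enzyme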
Assay type: functional
Active and inactive are the calls of the source.

-- ask Jot down IC50 (Fatty acid synthase (Homo sapiens)) of COC(=O)c1ccc(C2c3c(oc4ccc(Cl)cc4c3=O)C(=O)N2CCN2CCOCC2)cc1 (stereo not drawn) .
-- reply 14.6 µM (active)

-- ask Jot down IC50 (Fatty acid synthase (Homo sapiens)) of `Cc1ccc(-c2csc3nc(C(C)C)oc(=O)c23)c(C)c1` .
-- reply 1.32 µM (active)

-- ask Jot down IC50 (Fatty acid synthase (Homo sapiens)) of `CC1=C(O)C(=O)C(c2c(C)cc(C)c(Br)c2C)=C(O)C1=O` .
-- reply 10.8 µM (active)

-- ask Jot down IC50 (Fatty acid synthase (Homo sapiens)) of `Cc1cc(NC(=O)COC(=O)c2cc([N+](=O)[O-])ccc2N2CCOCC2)ccc1Br` .
-- reply 2.82 µM (active)

-- ask Jot down IC50 (Fatty acid synthase (Homo sapiens)) of `CC(C)(C)OC(=O)NCCc1onc(-c2cccc([N+](=O)[O-])c2)c1C(=O)O` .
-- reply 1.47 µM (active)

-- ask Jot down IC50 (Fatty acid synthase (Homo sapiens)) of `CCOC(=O)[C@]12Cc3cc(Cl)ccc3[C@H]1N(C1CCCCC1)C(=O)c1ccccc12` .
-- reply 6.4 µM (active)

-- ask Jot down IC50 (Fatty acid synthase (Homo sapiens)) of `COC(=O)N1C(=O)[C@](c2ccccc2)(C2CCCCC2)N1C(=O)OC` .
-- reply 0.929 µM (active)

-- ask Jot down IC50 (Fatty acid synthase (Homo sapiens)) of O=C(NN1C(=O)C2C(c3ccccc3)C=CC(c3ccccc3)C2C1=O)c1cccc(Br)c1 (stereo not drawn) .
-- reply 12.1 µM (active)

* * *

Molecular target: fMet-Leu-Phe receptor (Homo sapiens)
Sequence (P21462 whole entry): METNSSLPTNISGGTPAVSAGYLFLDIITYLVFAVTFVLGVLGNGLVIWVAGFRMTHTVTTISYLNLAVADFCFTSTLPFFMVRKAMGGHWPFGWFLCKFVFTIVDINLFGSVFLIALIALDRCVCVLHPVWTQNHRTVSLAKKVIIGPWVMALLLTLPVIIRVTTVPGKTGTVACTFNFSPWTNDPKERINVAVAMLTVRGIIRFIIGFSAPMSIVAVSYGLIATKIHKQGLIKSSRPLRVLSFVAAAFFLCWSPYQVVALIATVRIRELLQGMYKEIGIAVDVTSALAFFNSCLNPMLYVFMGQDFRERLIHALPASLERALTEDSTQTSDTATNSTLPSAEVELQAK
Test: formyl peptide receptor binders – dose response (AID 519)
Type: functional
Activity calls are given as the source filed them.
Consider the following molecules; for each one, report its Ki.

-- ask Find the measured Ki of `CCOC(=O)Nc1ccc(OC)cc1S(=O)(=O)N1CCCCC1` and report it.
-- reply > 66.7 µM (inactive)

-- ask Find the measured Ki of O=C(O)CC1Oc2ccc(Cl)cc2NC1=O (centres undefined) and report it.
-- reply > 66.7 µM (inactive)

-- ask Find the measured Ki of `O=S(=O)(c1c[nH]cn1)N1CCc2ccccc21` and report it.
-- reply > 66.7 µM (inactive)

-- ask Find the measured Ki of C=CCOc1ccc(C2C(C(=O)c3ccco3)=C(O)C(=O)N2Cc2cccnc2)cc1 (centres undefined) and report it.
-- reply 9.7 µM (active)
